For each record, write down the corresponding log10(Ki).
- Target system: D(3) dopamine receptor (Rattus norvegicus, UniProt P19020)
- Sequence (P19020 whole entry): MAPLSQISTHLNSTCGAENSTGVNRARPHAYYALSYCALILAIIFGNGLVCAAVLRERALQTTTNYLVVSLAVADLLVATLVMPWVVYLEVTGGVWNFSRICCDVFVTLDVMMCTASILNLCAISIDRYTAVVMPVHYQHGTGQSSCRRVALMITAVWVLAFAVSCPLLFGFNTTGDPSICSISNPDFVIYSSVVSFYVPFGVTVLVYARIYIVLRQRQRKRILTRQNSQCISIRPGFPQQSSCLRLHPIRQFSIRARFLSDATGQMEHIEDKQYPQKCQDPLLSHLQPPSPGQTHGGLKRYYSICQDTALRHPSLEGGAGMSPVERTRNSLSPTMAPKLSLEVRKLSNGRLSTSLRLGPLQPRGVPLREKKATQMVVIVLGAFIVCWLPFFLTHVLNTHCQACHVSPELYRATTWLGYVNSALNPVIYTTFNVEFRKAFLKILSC
- Experimental details: In vitro binding affinity against cloned mammalian Dopamine receptor D3 expressed in CHO cells by, using [3H]-spiperone as radioligand
- Assay type: cell-based
- Settings: read-out: Ki
Friendly reminder: values = log10 of Ki, unit nM.

Completed entries (count: 3):
# Compound, Target system, log10(Ki)
records = [
    ("CCCN(CCCCN1C(=O)CC(C)(C)CC1=O)[C@@H]1CCc2ccc3[nH]cc(C=O)c3c2C1", "D(3) dopamine receptor (Rattus norvegicus, UniProt P19020)", 2.19),
    ("CN(C)[C@@H]1CCc2ccc3[nH]ccc3c2C1", "D(3) dopamine receptor (Rattus norvegicus, UniProt P19020)", 2.43),
    ("CCCN(CCc1ccccc1)C1CCc2ccc3[nH]ccc3c2C1 (stereo unspecified)", "D(3) dopamine receptor (Rattus norvegicus, UniProt P19020)", 1.26),
]

Batch lookup, log10(Ki) per entry.
1. CCCN(CCCCN1C(=O)CC(C)(C)CC1=O)[C@H]1CCc2ccc3[nH]cc(C=O)c3c2C1
2. CCCN(CC1CC1)C1CCc2ccc3[nH]ccc3c2C1 (stereo unspecified)
3. CCCN(CCc1cccs1)C1CCc2ccc3[nH]cc(C=O)c3c2C1 (stereo unspecified)
4. CCCN(CCc1ccccc1)C1CCc2ccc3[nH]cc(C=O)c3c2C1 (stereo unspecified)
5. CCCN(CCCc1ccccc1OC)C1CCc2ccc3[nH]cc(C=O)c3c2C1 (stereo unspecified)
6. CCCN(Cc1ccccc1)C1CCc2ccc3[nH]cc(C=O)c3c2C1 (stereo unspecified)

result:
1. 3.10
2. 1.70
3. 1.68
4. 1.91
5. 1.92
6. 2.06

Batch lookup, log10(Ki) per entry.
1. CCCN(CC(C)C)[C@@H]1CCc2ccc3[nH]cc(C=O)c3c2C1
2. CCCN(CCCc1ccccc1)C1CCc2ccc3[nH]cc(C=O)c3c2C1 (stereo unspecified)

result:
1: 2.00; 2: 1.62

====

Consider the following Ki values measured on 5-hydroxytryptamine receptor 1B (Homo sapiens).
Sequence (P28222 whole entry): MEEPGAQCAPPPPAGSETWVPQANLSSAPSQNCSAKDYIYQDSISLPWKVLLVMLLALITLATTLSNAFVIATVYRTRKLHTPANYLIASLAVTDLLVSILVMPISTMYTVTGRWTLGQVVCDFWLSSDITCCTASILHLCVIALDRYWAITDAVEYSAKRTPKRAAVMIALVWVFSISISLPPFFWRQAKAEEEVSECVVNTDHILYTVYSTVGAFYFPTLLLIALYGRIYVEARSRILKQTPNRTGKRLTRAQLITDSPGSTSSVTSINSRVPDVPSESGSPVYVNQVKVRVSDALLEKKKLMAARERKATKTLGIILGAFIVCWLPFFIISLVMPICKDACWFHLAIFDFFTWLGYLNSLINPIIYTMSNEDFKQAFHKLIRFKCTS
One number for each entry, in nM.

Completed entries (count: 10):
# Compound, Target system, Property measured, Unit of measurement, Numeric result
rows = [
    ("CN(C)C1CCc2ccc3[nH]ccc3c2C1 (configuration not stated)", "5-hydroxytryptamine receptor 1B (Homo sapiens)", "Ki", "nM", 270),
    ("CCCN(CC1CC1)C1CCc2ccc3[nH]cc(C=O)c3c2C1 (configuration not stated)", "5-hydroxytryptamine receptor 1B (Homo sapiens)", "Ki", "nM", 196),
    ("CCCN(Cc1ccccc1)C1CCc2ccc3[nH]ccc3c2C1 (configuration not stated)", "5-hydroxytryptamine receptor 1B (Homo sapiens)", "Ki", "nM", 4610),
    ("CCCN(CCc1cccs1)C1CCc2ccc3[nH]cc(C=O)c3c2C1 (configuration not stated)", "5-hydroxytryptamine receptor 1B (Homo sapiens)", "Ki", "nM", 46),
    ("CCCN(CCCc1ccccc1OC)C1CCc2ccc3[nH]ccc3c2C1 (configuration not stated)", "5-hydroxytryptamine receptor 1B (Homo sapiens)", "Ki", "nM", 40),
    ("CCCN(CCc1ccccc1)C1CCc2ccc3[nH]ccc3c2C1 (configuration not stated)", "5-hydroxytryptamine receptor 1B (Homo sapiens)", "Ki", "nM", 249),
    ("CCCN(CCCCN1C(=O)CC(C)(C)CC1=O)[C@@H]1CCc2ccc3[nH]cc(C=O)c3c2C1", "5-hydroxytryptamine receptor 1B (Homo sapiens)", "Ki", "nM", 119),
    ("C=CCN(CCC)C1CCc2ccc3[nH]cc(C=O)c3c2C1 (configuration not stated)", "5-hydroxytryptamine receptor 1B (Homo sapiens)", "Ki", "nM", 49),
    ("CCCN(CC(C)C)[C@@H]1CCc2ccc3[nH]ccc3c2C1", "5-hydroxytryptamine receptor 1B (Homo sapiens)", "Ki", "nM", 219),
    ("CN(C)[C@@H]1CCc2ccc3[nH]ccc3c2C1", "5-hydroxytryptamine receptor 1B (Homo sapiens)", "Ki", "nM", 228),
]

Batch lookup, Ki per entry.
1. CCCN(CCCCN1C(=O)CC(C)(C)CC1=O)C1CCc2ccc3[nH]ccc3c2C1 (configuration not stated)
2. CCCNC1CCc2ccc3[nH]ccc3c2C1 (configuration not stated)
3. CCCNC1CCc2ccc3[nH]cc(C=O)c3c2C1 (configuration not stated)
4. CN(C)[C@@H]1CCc2ccc3[nH]cc(C=O)c3c2C1

result:
224
483
227
20
